Tested on: Gastric Secretion of the Rat
experiment description: Effects on gastric secretion of the rat (pylorus ligated)
Assay type: in vivo
condition set: subcutaneous, 2 x 1.5 mg/kg (total 3.0 mg/kg); 4 hours after pyloric ligation
measured attribute: Gastric Secretion (value judgement, % decrease in acidity)

Some solved entries appear below for comparison.
                                   molecule                  result
0  CCCCC[C@H](O)/C=C/[C@H]1[C@H](O)CC(=O)[C@@H]1CCCCOCCO [TR-4650]                 0 (<26)
1  CCCCC(C)(C)[C@H](O)/C=C/[C@H]1[C@H](O)CC(=O)[C@@H]1CCCCOCCO (relative stereo) [TR-4616]  2 (26-50, significant)
2  O=C1CC(O)C(/C=C/[C@H](O)C2CCCCC2)C1CCCCOCCO (some centres unmarked) [TR-4856]                 0 (<26)
3  CCCCC(C)(C)[C@@H](O)/C=C/[C@H]1[C@H](O)CC(=O)[C@@H]1CCCCOCCO (relative stereo) [TR-4617]                 0 (<26)

Continue with the next molecule.
response.value for CCCCC[C@H](O)/C=C/[C@H]1[C@H](CCCCOCCO)C(=O)C[C@@H]1O [TR-4649] (field: Gastric Secretion (value judgement, % decrease in acidity)) = 0 (<26)

# credit: patent US4158018A
